assay.summary: COS7 lysate on small-molecule microarray, probe aHis, 635 nm (AID 1123);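 also: z-score combines 667nm fluorescence intensity with signal-to-noise per printed compound spot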
condition.details: COS7 cell lysate, fluorescence, higher = more signal
Below, each of the molecules is paired with its reported composite z-score value.
// keep it numeric: no unit symbol after the value

O=C1C2C=CC(C(O)C=Cc3ccc([N+](=O)[O-])cc3)N(Nc3ccccc3F)C2C(=O)N1c1ccccc1 (configuration not stated) :: 2.31
CCOC(=O)C1=CC[C@H]2C(=O)N(c3ccccc3)C(=O)[C@@H]12 :: 2.7

Recorded composite z-score (molecule `C[N+](C)(C)CCCC[C@@H]1NC(=O)[C@H]2C[C@@H](C(=O)NCCCCCCNC(=O)CS)[C@@H](c3ccc(O)cc3)N2C1=O` ): 0.483

Recorded composite z-score (molecule `O=C1O[C@@H](c2ccccc2)[C@@H](c2ccccc2)N2[C@@H](c3ccccc3OCCO)[C@]3(C(=O)Nc4ccc(C#CC5(O)CCCCCC5)cc43)[C@@H](C(=O)N3CCN(c4ncccn4)CC3)[C@H]12` ): 1.47

Recorded composite z-score (molecule `C#CCN(C/C=C/c1ccccc1)[C@H](CO)c1ccccc1` ): -0.128

Recorded composite z-score (molecule `C=CCN1C(=O)[C@]2(O[C@H](CCO)[C@@H]([Si](C)(C)c3ccc(OC)cc3)[C@@H]2C)c2cc(N(C=O)c3ccccc3)ccc21` ): 0.225

Recorded composite z-score (molecule `COC(=O)[C@H](Cc1ccccc1)N[C@H](/C=C/C1CC1)[C@@H](O)Cc1ccccc1` ): 0.369
